Measured values drawn from patent US20230416335A1 for this set.

# target_under_test: … (SEQ ID NO: 1)-HLA-A*02 complex (human)
# assay_info: cell-based or functional assay
In plain terms, low EC50 (mel624), IFN-γ ELISPOT, T cell activation, meaning strictly below 0.02 nM, gives yes (1), and everything else gives no (0).

Below are worked cases with known answers.
Quick check: does ImmTAC molecule a28b74 (TCR-anti-CD3 fusion) (TCR, part only; not given: anti-CD3 scFv, linker, constant regions, not shown: a dimerising Fc or GST) TCR alpha, part: GDAKTTQPNSMESNEEEPVHLPCNHSTISGTDYIHWYRQLPSQGPEYVIHGLTSNVNNRMASLAIAEDRKSSTLILHRATLRDAAVYYCILILGHSRAGNYIATFGKGTKLSVIP TCR beta, part: DGGITQSPKYLFRKEGQNVTLSCEQNLNHDAMYWYRQDPGQGLRLIYYSQIMGDEQKGDIAEGYSVSREKKESFPLTVTSAQKNPTAFYLCASSWWTGGASPIRFGPGTRLTVT have EC50 (mel624), IFN-γ ELISPOT, T cell activation under 0.02 nM?
no (0)

Input ImmTAC molecule a79b76 (TCR-anti-CD3 fusion) (TCR, part only; not given: anti-CD3 scFv, linker, constant regions, not shown: a dimerising Fc or GST) TCR alpha, part: GDAKTTQPNSMESNEEEPVHLPCNHSTISGTDYIHWYRQLPSQGPEYVIHGLTSNVNNRMASLAIAEDRKSSTLILHRATLRDAAVYYCILILGHSRLGNYIATFGKGTKLSVIP TCR beta, part: DGGITQSPKYLFRKEGQNVTLSCEQNLNHDAMYWYRQDPGQGLRLIYYSQIMGDEQKGDIAEGYSVSREKKESFPLTVTSAQKNPTAFYLCASSWWTGGSSPIRFGPGTRLTVT ; condition: EC50 (mel624), IFN-γ ELISPOT, T cell activation strictly below 0.02 nM. Does it hold?
yes (1)

I'd appreciate it if you could check whether ImmTAC molecule a28b75 (TCR-anti-CD3 fusion) (TCR, part only; not given: TCR constant regions and anti-CD3 scFv, not shown: a dimerising Fc or GST) TCR alpha, part: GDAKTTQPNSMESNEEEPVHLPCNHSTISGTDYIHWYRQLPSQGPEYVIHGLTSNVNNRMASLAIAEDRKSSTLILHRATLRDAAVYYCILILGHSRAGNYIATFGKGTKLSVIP TCR beta, part: DGGITQSPKYLFRKEGQNVTLSCEQNLNHDAMYWYRQDPGQGLRLIYYSQIMGDEQKGDIAEGYSVSREKKESFPLTVTSAQKNPTAFYLCASSWWTGGSAPISFGPGTRLTVT has EC50 (mel624), IFN-γ ELISPOT, T cell activation smaller than 0.02 nM.
yes (1)

Criterion: EC50 (mel624), IFN-γ ELISPOT, T cell activation strictly below 0.02 nM. Is it met by ImmTAC molecule a79b69 (TCR-anti-CD3 fusion) (TCR, part only; not given: anti-CD3 scFv, linker, constant regions, not shown: a dimerising Fc or GST) TCR alpha, part: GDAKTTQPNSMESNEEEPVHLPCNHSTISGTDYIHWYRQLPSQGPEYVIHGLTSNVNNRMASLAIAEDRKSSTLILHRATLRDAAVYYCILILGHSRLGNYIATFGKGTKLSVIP TCR beta, part: DGGITQSPKYLFRKEGQNVTLSCEQNLNHDAMYWYRQDPGQGLRLIYYSQIMGDEQKGDIAEGYSVSREKKESFPLTVTSAQKNPTAFYLCASSWWTGGSAEIRFGPGTRLTVT ?
no (0)

is_below(EC50 (mel624), IFN-γ ELISPOT, T cell activation, 0.02 nM) for ImmTAC molecule a79b73 (TCR-anti-CD3 fusion) (TCR, part only; not given: anti-CD3 scFv, linker, constant regions, not shown: a dimerising Fc or GST) TCR alpha, part: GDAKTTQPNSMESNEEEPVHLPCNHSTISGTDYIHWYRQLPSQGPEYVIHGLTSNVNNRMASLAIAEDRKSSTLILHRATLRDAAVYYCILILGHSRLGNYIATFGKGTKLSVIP TCR beta, part: DGGITQSPKYLFRKEGQNVTLSCEQNLNHDAMYWYRQDPGQGLRLIYYSQIMGDEQKGDIAEGYSVSREKKESFPLTVTSAQKNPTAFYLCASSWWTGGAAPISFGPGTRLTVT ?
no (0)

---
Does the reported EC50 (mel624), IFN-γ ELISPOT, T cell activation of ImmTAC molecule a79b63 (TCR-anti-CD3 fusion) (TCR, part only; not given: anti-CD3 scFv, linker, constant regions, not shown: a dimerising Fc or GST) TCR alpha, part: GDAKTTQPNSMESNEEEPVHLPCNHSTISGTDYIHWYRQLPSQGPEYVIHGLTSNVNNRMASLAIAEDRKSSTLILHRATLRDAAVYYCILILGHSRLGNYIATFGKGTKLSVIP TCR beta, part: DGGITQSPKYLFRKEGQNVTLSCEQNLNHDAMYWYRQDPGQGLRLIYYSQIVGDEQKGDIAEGYSVSREKKESFPLTVTSAQKNPTAFYLCASSWWTGGSAPIRFGPGTRLTVT stay below 0.02 nM?
no (0)

Would you kindly verify if EC50 (mel624), IFN-γ ELISPOT, T cell activation of ImmTAC molecule a79b77 (TCR-anti-CD3 fusion) (TCR, part only; not given: anti-CD3 scFv, linker, constant regions, not shown: a dimerising Fc or GST) TCR alpha, part: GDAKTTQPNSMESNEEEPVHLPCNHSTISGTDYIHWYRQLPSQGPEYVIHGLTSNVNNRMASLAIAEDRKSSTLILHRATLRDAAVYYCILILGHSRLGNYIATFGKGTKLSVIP TCR beta, part: DGGITQSPKYLFRKEGQNVTLSCEQNLNHDAMYWYRQDPGQGLRLIYYSQIMGDEQKGDIAEGYSVSREKKESFPLTVTSAQKNPTAFYLCASSWWTGGAAPIRFGPGTRLTVT is strictly less than 0.02 nM?
yes (1)

Problem: For the binder ImmTAC molecule a79b58 (TCR-anti-CD3 fusion) (TCR, part only; not given: anti-CD3 scFv, linker, constant regions, not shown: a dimerising Fc or GST) TCR alpha, part: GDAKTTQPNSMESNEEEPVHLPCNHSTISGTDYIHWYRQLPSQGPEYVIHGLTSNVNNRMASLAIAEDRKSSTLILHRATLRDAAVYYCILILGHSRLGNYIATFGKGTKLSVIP TCR beta, part: DGGITQSPKYLFRKEGQNVTLSCEQNLNHDAMYWYRQDPGQGLRLIYYSQIMGDEQKGDIAEGYSVSREKKESFPLTVTSAQKNPTAFYLCASSWWTGGSSPISFGPGTRLTVT , is EC50 (mel624), IFN-γ ELISPOT, T cell activation under 0.02 nM?
yes (1)

Hi there! Is EC50 (mel624), IFN-γ ELISPOT, T cell activation for ImmTAC molecule a79b71 (TCR-anti-CD3 fusion) (TCR, part only; not given: anti-CD3 scFv, linker, constant regions, not shown: a dimerising Fc or GST) TCR alpha, part: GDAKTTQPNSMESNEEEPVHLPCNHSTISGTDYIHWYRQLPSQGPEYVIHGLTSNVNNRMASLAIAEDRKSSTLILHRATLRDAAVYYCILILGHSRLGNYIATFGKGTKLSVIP TCR beta, part: DGGITQSPKYLFRKEGQNVTLSCEQNLNHDAMYWYRQDPGQGLRLIYYSQIMGDEQKGDIAEGYSVSREKKESFPLTVTSAQKNPTAFYLCASSWWTGGSAPIYFGPGTRLTVT below 0.02 nM, do you know?
no (0)

Does this binder meet the criterion EC50 (mel624), IFN-γ ELISPOT, T cell activation < 0.02 nM? ImmTAC molecule a79b67 (TCR-anti-CD3 fusion) (TCR, part only; not given: anti-CD3 scFv, linker, constant regions, not shown: a dimerising Fc or GST) TCR alpha, part: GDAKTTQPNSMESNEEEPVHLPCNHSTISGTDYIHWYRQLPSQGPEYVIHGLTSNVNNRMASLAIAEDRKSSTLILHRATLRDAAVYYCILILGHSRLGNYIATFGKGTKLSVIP TCR beta, part: DGGITQSPKYLFRKEGQNVTLSCEQNLNHDAMYWYRQDPGQGLRLIYYSQIMGDEQKGDIAEGYSVSREKKESFPLTVTSAQKNPTAFYLCASSWWTSGSAPIRFGPGTRLTVT
no (0)
